Reference source for all entries: a melting point compilation (Tetko et al.)

# reported melting point; entries follow
EXPERIMENTAL READOUT: melting point (°C)

N#CC(C(N)=O)=C(SCc1ccccc1)SCc1ccccc1; 104
FC(F)C(F)(F)F; -103
Cc1cc([N+](=O)[O-])cnc1Br; 57
C1CSC1; -73.2
Clc1ncc(Br)cn1; 79
CCSCc1ccccc1OC(=O)NC; 33.4
CN1CCc2cc3c(cc2C1C1OC(=O)c2c1ccc1c2OCO1)OCO3 (centres undefined); 194
FC(F)(Cl)C(F)(Cl)Cl; -35
O=C(O)c1c(F)cnc(F)c1F; 110
Cc1cccc(C)c1N(Cn1cccn1)C(=O)CCl; 85
O=C(O)Cc1cc(O)ccc1O; 153
CC(C)(C(=O)O)C1=CCC2(C)C(CCC3C4CCC(O)C4(C)CCC32)C1 (centres undefined); 264

###

# reported melting point; entries follow
EXPERIMENTAL READOUT: melting point

C=C(C)C(=O)OCCC(F)(F)C(F)(F)C(F)(F)C(F)(F)C(F)(F)C(F)(F)C(F)(F)C(F)(F)C(F)(F)C(F)(F)F; 45 to 50 °C
CCCCCCCCCCCCCCCCc1ccccc1; 25 to 29 °C
NC(=S)c1ccc2c(c1)OCO2; 183 to 186 °C
CCOC(=O)c1c(-c2ccccc2)csc1NC(=O)CN(CC)CC; 93 to 94 °C
NC(=O)c1cc(Cl)nc(Cl)c1; 202 to 206 °C
CSc1nc(=O)n2ccc(C)cc2n1; 170 to 173 °C
N#CCSc1ccc2ccccc2c1; 83 to 86 °C
FC(F)(F)c1cccc(-n2cc[nH]c2=S)c1; 157 to 159 °C
CCCCc1c(C)nc(NC(=O)NS(=O)(=O)c2cccs2)nc1O; 200 to 201 °C
CC1(C)OC(=O)C(=Cc2cccs2)C(=O)O1; 182 °C
Cc1cc([N+]([O-])=Nc2ccccc2)c(C(C)C)cc1[N+]([O-])=Nc1ccccc1; 127 °C
CC(C)(O)CCc1ccccc1; 24.5 °C
Cn1nc(-c2ccccc2)cc1CN; 48 to 49 °C
CC(C)(C)OC(=O)N1CCC(C(=O)c2ccc(F)cc2)CC1; 89 to 91 °C
NC(=NO)c1ccc(F)cc1; 92 to 95 °C
O=[N+]([O-])c1ccc2c(c1)CCN2; 93 °C
CCOC(=O)C1=C(C)NC(=O)NC1c1cccc(OC)c1O (stereo not given); 209 °C
CC(=O)Nc1cc([N+](=O)[O-])c(C=Cc2ccccc2)cc1C=Cc1ccccc1; 227 °C
CC1=C/C(=N/NC(N)=O)C(C(C)C)CC1 (stereo not given); 219 to 220 °C
O=C(O)c1ccc(OC2CCOCC2)nc1; 168 to 170 °C
OC1COC(O)C(O)C1O (stereo not given); 152 to 160 °C
NC(=O)CS(=O)(=O)c1ccccc1; 156 °C
Cc1ccc(C)c(CC(=O)O)c1; 128 to 132 °C
CC1(C)OC2CC3C4CC(F)C5=CC(=O)C=CC5(C)C4C(O)CC3(C)C2(C(=O)CO)O1 (stereo not given); 245 °C
N#CCn1cnc(Cl)c1Cl; 95 to 99 °C
O=[N+]([O-])c1ccc(N=Nc2ccc(N(CCO)CCO)cc2Cl)cc1; 190 °C
CC(Oc1ccc(Oc2ncc(C(F)(F)F)cc2Cl)cc1)C(=O)O (stereo not given); 108 °C
CS(=O)(=O)c1ccccc1C(=O)O; 139 °C
CN1CCCN=C1C=Cc1cccs1; 178 °C
CSc1nc(N)c(C(C)=O)s1; 159 to 160 °C
Cc1ccc(Br)c(O)c1C(=O)O; 57 °C
CCCCOC(=O)c1ccc([N+](=O)[O-])cc1; 35.5 °C
COc1ccc(N2C(=O)C3ON=C(C(=O)c4ccco4)C3C2=O)cc1 (stereo not given); 137 °C
N#C/C(=N\Nc1c(Br)cc(Br)cc1Br)c1nc2ccccc2s1; 179 °C
Sc1nccc(-c2ccco2)n1; 200 °C
